The measurements presented in this section are drawn from patent US8680155B2.

Examples of compounds with documented Survival (% control) of compound (10 μM) follow.
# Test system: H1335
# test: MTT survival, H1335 lung cancer
# Assay type: cell-based, human
# experimentalSetup: H1335, 10 μM
# Procedure: Next, in vitro cytotoxicity of the multiple compounds in various cell lines was evaluated, which also was performed using MTT colorimetric assay. […] Comparing breast cancer cells MCF-7 with other cancer cells, most selected compounds had higher inhibition activity to MCF-7 cells. Therefore, breast cancer cells MCF-7 were chosen to be the research target in the following experiments.
Quick reminder: number only, in % control, skip the unit.

Exercise: # return Survival (% control) of compound (10 μM) of `Cc1cc(C(=Nc2ccc(Cl)cc2)SSC(=Nc2ccc(Cl)cc2)c2ccc([N+](=O)[O-])c(C)c2)ccc1[N+](=O)[O-]` (system: H1335)
Solution: 67.4

Exercise: Given `O=[N+]([O-])c1ccc(C(=Nc2ccc(C(F)(F)F)cc2)SSC(=Nc2ccc(C(F)(F)F)cc2)c2ccc([N+](=O)[O-])cc2)cc1` , report its Survival (% control) of compound (10 μM) on H1335.
Solution: 66.0

Exercise: Provide H1335 Survival (% control) of compound (10 μM) reading for `O=[N+]([O-])c1cc(N=C(SSC(=Nc2ccc(F)c([N+](=O)[O-])c2)c2ccc(C(F)(F)F)cc2)c2ccc(C(F)(F)F)cc2)ccc1F` .
Solution: 80.2

* * *

Survival (% control) of compound (10 μM) reference
# System: H1335
# test: MTT survival, H1335 lung cancer
# Assay type: cell-based, human
# experimentalSetup: H1335, 10 μM
Your answer should be a number followed by the unit of measure.

Solved cases (3 shown):
[
  {
    "smilesStructure": "Cc1c(N=C(SSC(=Nc2cccc([N+](=O)[O-])c2C)c2ccc(F)cc2)c2ccc(F)cc2)cccc1[N+](=O)[O-]",
    "result": "70.0 ± 0.13 % control"
  },
  {
    "smilesStructure": "Cc1cc(C(=Nc2ccccc2)SSC(=Nc2ccccc2)c2ccc([N+](=O)[O-])c(C)c2)ccc1[N+](=O)[O-]",
    "result": "69.8 ± 0.13 % control"
  },
  {
    "smilesStructure": "Cc1c(N=C(SSC(=Nc2cccc([N+](=O)[O-])c2C)c2ccc(C(F)(F)F)cc2)c2ccc(C(F)(F)F)cc2)cccc1[N+](=O)[O-]",
    "result": "26.0 ± 0.32 % control"
  }
]

Exercise: Tell us which Survival (% control) of compound (10 μM) value is on record for `Cc1ccc([N+](=O)[O-])cc1N=C(SSC(=Nc1cc([N+](=O)[O-])ccc1C)c1ccc(F)cc1)c1ccc(F)cc1`
Solution: 80.6 ± 0.08 % control

Exercise: Look up Survival (% control) of compound (10 μM) of `O=[N+]([O-])c1ccc(C(=Nc2ccc(Cl)cc2)SSC(=Nc2ccc(Cl)cc2)c2ccc([N+](=O)[O-])cc2)cc1` and report it.
Solution: 75.8 ± 0.10 % control

Exercise: Supply recorded Survival (% control) of compound (10 μM) for `Cc1ccc(N=C(SSC(=Nc2ccc(C)c([N+](=O)[O-])c2)c2ccc(C(F)(F)F)cc2)c2ccc(C(F)(F)F)cc2)cc1[N+](=O)[O-]` here.
Solution: 81.4 ± 0.08 % control
